Source listed as patent US5250679A.

Each item that follows carries a reported IC50.
experimentalSystem: GP IIb IIIa (Homo sapiens, UniProt P05106+P08514)
Construct: from tissue; host or cells: outdated human platelets
Sequence (P08514 32-887 limits assumed): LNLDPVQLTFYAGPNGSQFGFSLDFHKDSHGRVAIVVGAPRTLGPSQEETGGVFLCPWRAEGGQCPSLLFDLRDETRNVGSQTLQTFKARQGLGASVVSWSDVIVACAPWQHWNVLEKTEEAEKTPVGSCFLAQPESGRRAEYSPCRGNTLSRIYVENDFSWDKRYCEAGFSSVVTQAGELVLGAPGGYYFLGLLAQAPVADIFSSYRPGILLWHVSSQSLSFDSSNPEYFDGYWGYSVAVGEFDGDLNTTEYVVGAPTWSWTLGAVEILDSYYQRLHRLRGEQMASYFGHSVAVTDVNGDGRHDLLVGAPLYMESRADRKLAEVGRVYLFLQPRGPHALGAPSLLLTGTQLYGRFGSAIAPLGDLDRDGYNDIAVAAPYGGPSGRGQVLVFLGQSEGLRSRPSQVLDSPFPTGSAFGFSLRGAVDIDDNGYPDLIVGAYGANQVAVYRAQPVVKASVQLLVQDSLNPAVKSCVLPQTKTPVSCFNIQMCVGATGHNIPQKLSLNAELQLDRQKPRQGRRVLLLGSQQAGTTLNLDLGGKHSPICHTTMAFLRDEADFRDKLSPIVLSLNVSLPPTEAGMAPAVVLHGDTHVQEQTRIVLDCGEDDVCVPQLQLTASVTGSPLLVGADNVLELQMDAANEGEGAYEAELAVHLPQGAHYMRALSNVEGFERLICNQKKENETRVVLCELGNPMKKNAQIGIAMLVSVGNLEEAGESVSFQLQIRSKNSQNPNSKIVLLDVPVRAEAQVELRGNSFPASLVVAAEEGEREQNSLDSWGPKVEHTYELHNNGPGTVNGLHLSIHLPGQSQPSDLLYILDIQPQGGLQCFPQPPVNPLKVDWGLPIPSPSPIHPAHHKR
Sequence (P08514 891-1039 partner limits assumed): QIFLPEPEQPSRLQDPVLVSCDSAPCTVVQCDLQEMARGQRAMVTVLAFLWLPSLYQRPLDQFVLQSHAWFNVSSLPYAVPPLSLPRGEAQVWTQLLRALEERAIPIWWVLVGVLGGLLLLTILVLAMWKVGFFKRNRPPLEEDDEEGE
Sequence (P05106 27-788): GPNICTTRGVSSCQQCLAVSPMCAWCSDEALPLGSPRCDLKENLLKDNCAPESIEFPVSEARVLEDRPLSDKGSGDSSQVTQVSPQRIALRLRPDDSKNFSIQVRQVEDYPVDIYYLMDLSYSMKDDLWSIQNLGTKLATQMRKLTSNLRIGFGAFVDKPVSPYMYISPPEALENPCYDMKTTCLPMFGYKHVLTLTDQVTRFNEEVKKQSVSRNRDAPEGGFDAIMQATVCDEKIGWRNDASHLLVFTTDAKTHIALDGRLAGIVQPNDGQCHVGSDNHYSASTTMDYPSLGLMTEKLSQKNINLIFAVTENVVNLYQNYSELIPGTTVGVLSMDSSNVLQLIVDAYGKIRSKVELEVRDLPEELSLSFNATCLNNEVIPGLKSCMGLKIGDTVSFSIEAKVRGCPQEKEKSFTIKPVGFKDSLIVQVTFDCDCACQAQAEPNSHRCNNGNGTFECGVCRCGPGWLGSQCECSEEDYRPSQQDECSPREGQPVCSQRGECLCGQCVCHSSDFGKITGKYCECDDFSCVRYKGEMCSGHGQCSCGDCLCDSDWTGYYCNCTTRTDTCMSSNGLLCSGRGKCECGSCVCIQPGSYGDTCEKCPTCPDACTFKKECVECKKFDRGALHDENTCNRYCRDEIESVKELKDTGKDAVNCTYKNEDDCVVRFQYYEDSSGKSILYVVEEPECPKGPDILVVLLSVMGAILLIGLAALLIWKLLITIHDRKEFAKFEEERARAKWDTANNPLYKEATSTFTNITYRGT
assayMethodText: Fibrinogen-GP IIb IIIa Receptor ELISA Binding Assay (Fg/IIbIIIa)
cond: Example 30, G # table; read-out: IC50 (μM) Fg/IIbIIIa
Please reply with the bare figure in µM and do not write the unit itself.

NCCCCC#Cc1ccc2c(c1)C(=O)N(CCC(=O)O)CC(=O)N2Cc1ccc(Cl)cc1
0.014
CN1C(=O)CN(CCC(=O)O)C(=O)c2cc(CCCCNC(=N)N)ccc21
0.245
N=C(N)NCCCCCCc1ccc2c(c1)C(=O)N(CCC(=O)O)CC(=O)N2Cc1cccc(NC(=O)CCCCNC(=N)N)c1
0.018
N=C(N)NCCCCCc1ccc2c(c1)C(=O)N(CCC(=O)O)CC(=O)N2Cc1cccc2ccccc12
0.008

Below: the item to evaluate.
q: # get_value(readout='IC50', item= `NCCCCCCc1ccc2c(c1)C(=O)N(CCC(=O)O)CC(=O)N2Cc1cccc(NC(=O)CN)c1` )
a: 0.012
